assay: protein stability index of a GFP-peptide fusion (yeast GPS) (PSI 1-4); higher = more stable; sorted into four equal gates, so the index is relative within each strain; conditions: ubr1∆
Rule: condition met for protein stability index not less than 3, condition not met for anything less.

SNSSSSPPIIDLFSNNN [MED1] : condition not met
KNNSSIRNVIMSASNAN [SRB8] : condition not met
SHNWAAKAKRRHTTGTG [RPL37B] : condition met
KVFVPPKSKSLPNEMSQ [RPO31] : condition not met
SIDSTSRIELELKNIGL [ECM29] : condition not met

q: Kindly determine if protein stability index recorded for PEKEASSATIVLCLTRS [YCG1] is above or exactly 3.
a: condition not met

q: How about this sequence: DQYDAERDFYHSLREYI [RPO31]
a: condition met

q: How about this sequence: SYELIKEECQIEDDGII [CSN9]
a: condition met

q: How about this sequence: KVVKTPGGILRAQHVKK [RPL34A]
a: condition not met

q: How about this sequence: IRRLRVLRRLLAKYRDA [RPL19A]
a: condition not met

q: How about this sequence: LPTTVVSNPGDNPPPAD [MED2]
a: condition met

q: How about this sequence: YQEDIFVSESPSFVKSG [ISW2]
a: condition not met

q: How about this sequence: DEFIKTHEDLPKEVDGL [IRR1]
a: condition met

q: How about this sequence: KMATDNKINSRNSWNFA [BRN1]
a: condition not met

q: How about this sequence: VQVSKAGGLPMDALTLM [RRP45]
a: condition not met

q: How about this sequence: ALGMMTRISSQFEKSRK [RET1]
a: condition not met

q: How about this sequence: SNKILVYESEMEQCKQR [YIL149C/MLP2]
a: condition met

* * *

experiment: protein stability index of a GFP-peptide fusion (yeast GPS) (PSI 1-4); higher = more stable; sorted into four equal gates, so the index is relative within each strain; settings: san1∆
The entries below come with measured protein stability index values attached.
Would you mind answering with just the numeric figure?

Look over these answered cases.
KAMDIPIGRHEELLAQY [SWP82] : 2.13
INNNINIPQQQQMQPPN [GAL11] : 2.83

q: Need protein stability index, item LVLLELVSSGDRFIELI [YML103C/NUP188]
a: 2.21

q: How about this sequence: YEIRDIDQDIHGIVFQH [SSN2]
a: 2.72

q: How about this sequence: LTIFDSVDESARIKDAF [YJL039C/NUP192]
a: 3.19

q: How about this sequence: VRIDLGTIDKLQLELTI [RPO31]
a: 2.5

q: How about this sequence: QHLQQLKMQQQQQQQQQ [GAL11]
a: 2.02

* * *

assay: protein stability index of a GFP-peptide fusion (yeast GPS) (PSI 1-4); higher = more stable; sorted into four equal gates, so the index is relative within each strain; conditions: san1∆
READOUT: protein stability index
Would you mind answering with just the numeric figure?

Look over these answered cases.
AVVVRGRYAGKKVVIVK [RPL27A] : 3.03
RQCFREKANDIGFHKYR [RPS29B] : 2.96
PNVFDKDSYVRIANIEQ [YDL088C/ASM4] : 3.04
AGMTTIVRDLDRPGSKF [RPL3] : 2.95
SDPNNQSLNEMVKLIVM [YJL039C/NUP192] : 2.97

q: Need protein stability index, item ILADEMGLGKTLQTISF [ISW2]
a: 2.91

q: How about this sequence: TNEFVGSPSLTSPQYIP [NUT1]
a: 3.06

q: How about this sequence: TKANDKNESATINEMMK [FAS2]
a: 3.03

q: How about this sequence: GEICKNYELEKIADNIS [YDL116W/NUP84]
a: 2.96
